# System: PRKCE;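 further: KINOMEscan kinase panel screen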
# Condition label: concentration: 1 μM, replicates: in singlicate; n = 1
Reported endpoint: %Inh (%)
Express the result in % but write the number alone.

Before answering, review these 2 worked examples.
May I ask what %Inh has been recorded for Cl.Cl.Cl.N#Cc1ccc(CCNc2nccc(-c3cccc(CN4CCNCC4)c3)n2)cc1 ? 76

May I ask what %Inh has been recorded for Nc1cccc(-c2ccc3c(N)n[nH]c3c2)n1 ? 0

More entries:
May I ask what %Inh has been recorded for COc1ccc(Nc2nccc(NCCNC(=O)Nc3cc(C)ccc3C)n2)cc1 ? 0

May I ask what %Inh has been recorded for CNC(=O)c1ccc(C)c(-n2c(C)cc(OCc3ccc(F)cc3F)c(Br)c2=O)c1 ? 35
